- System: MCF7
- EXPERIMENTAL_DETAILS: normalised growth rate inhibition (GR value) relative to DMSO control (GR (1 = untreated growth, 0 = cytostasis, <0 = cytotoxic)); higher = less growth inhibition
- PARTICULARS: 3.33 µM; 72 h
Catalogue of normalised growth rate inhibition values

{"COMPOUND": "COc1cc(N2CCC(N3CCN(C)CC3)CC2)ccc1Nc1ncc(Cl)c(Nc2ccccc2S(=O)(=O)C(C)C)n1 [NVP-TAE684]", "normalised growth rate inhibition": -0.129}
{"COMPOUND": "Cc1cnc(-c2cnc(NCCNc3ccc(C#N)cn3)nc2-c2ccc(Cl)cc2Cl)[nH]1", "normalised growth rate inhibition": 0.585}
{"COMPOUND": "Cc1cc(C(C)Nc2ccccc2)c2nc(N3CCOCC3)cc(=O)n2c1 (centres undefined) [TGX-221]", "normalised growth rate inhibition": 0.79}
{"COMPOUND": "C=CC(=O)Nc1cccc(Nc2nc(NC3CCC(N(C)C)CC3)nc3c2ncn3C(C)C)c1 (centres undefined) [WZ-3105]", "normalised growth rate inhibition": -0.27}

---

# Lookup of reported normalised growth rate inhibition keyed by entry
- System: BT20
- EXPERIMENTAL_DETAILS: normalised growth rate inhibition (GR value) relative to DMSO control (GR (1 = untreated growth, 0 = cytostasis, <0 = cytotoxic)); higher = less growth inhibition
- PARTICULARS: 0.04 µM; 72 h
MEASURED_ENDPOINT: normalised growth rate inhibition

{"COMPOUND": "Cn1cc(C2=C(c3cn(C4CCN(Cc5ccccn5)CC4)c4ccccc34)C(=O)NC2=O)c2ccccc21 [enzastaurin]", "MEASUREMENT_TARGET": "BT20", "MEASURED_ENDPOINT": "normalised growth rate inhibition", "OBS_VALUE": 1.01}
{"COMPOUND": "CCOc1cc2ncc(C#N)c(Nc3ccc(F)c(Cl)c3)c2cc1NC(=O)/C=C/CN(C)C [pelitinib]", "MEASUREMENT_TARGET": "BT20", "MEASURED_ENDPOINT": "normalised growth rate inhibition", "OBS_VALUE": 0.966}
{"COMPOUND": "Cc1cc(Nc2cc(N3CCN(C)CC3)nc(Sc3ccc(NC(=O)C4CC4)cc3)n2)n[nH]1 [tozasertib]", "MEASUREMENT_TARGET": "BT20", "MEASURED_ENDPOINT": "normalised growth rate inhibition", "OBS_VALUE": 0.385}
{"COMPOUND": "C=CC(=O)Nc1cc(-n2c(=O)ccc3cnc4ccc(-c5cn[nH]c5)cc4c32)ccc1C [QL-X-138]", "MEASUREMENT_TARGET": "BT20", "MEASURED_ENDPOINT": "normalised growth rate inhibition", "OBS_VALUE": 0.727}
{"COMPOUND": "Cc1cc([C@@H](C)Nc2ccccc2C(=O)O)c2nc(N3CCOCC3)cc(=O)n2c1 [AZD-6482]", "MEASUREMENT_TARGET": "BT20", "MEASURED_ENDPOINT": "normalised growth rate inhibition", "OBS_VALUE": 0.974}
{"COMPOUND": "CCCS(=O)(=O)Nc1ccc(F)c(C(=O)c2c[nH]c3ncc(-c4ccc(Cl)cc4)cc23)c1F [vemurafenib]", "MEASUREMENT_TARGET": "BT20", "MEASURED_ENDPOINT": "normalised growth rate inhibition", "OBS_VALUE": 0.971}
{"COMPOUND": "CC(=O)c1c(C)c2cnc(Nc3ccc(N4CCNCC4)cn3)nc2n(C2CCCC2)c1=O [palbociclib]", "MEASUREMENT_TARGET": "BT20", "MEASURED_ENDPOINT": "normalised growth rate inhibition", "OBS_VALUE": 0.654}
{"COMPOUND": "Cc1cc(C(=O)NOCCO)c(Nc2ccc(I)cc2F)n(C)c1=O [AZD-8330]", "MEASUREMENT_TARGET": "BT20", "MEASURED_ENDPOINT": "normalised growth rate inhibition", "OBS_VALUE": 0.685}
